Data provenance: patent US7858621B2

system: vanilloid receptor (Rattus norvegicus, UniProt O35433)
Construct: DRG nerve cells from the primary culture of 2 days were equilibrated; endogenous in cells; host or cells: primary culture of dorsal root ganglion neurons from neonatal SD rats
Sequence (O35433 whole entry): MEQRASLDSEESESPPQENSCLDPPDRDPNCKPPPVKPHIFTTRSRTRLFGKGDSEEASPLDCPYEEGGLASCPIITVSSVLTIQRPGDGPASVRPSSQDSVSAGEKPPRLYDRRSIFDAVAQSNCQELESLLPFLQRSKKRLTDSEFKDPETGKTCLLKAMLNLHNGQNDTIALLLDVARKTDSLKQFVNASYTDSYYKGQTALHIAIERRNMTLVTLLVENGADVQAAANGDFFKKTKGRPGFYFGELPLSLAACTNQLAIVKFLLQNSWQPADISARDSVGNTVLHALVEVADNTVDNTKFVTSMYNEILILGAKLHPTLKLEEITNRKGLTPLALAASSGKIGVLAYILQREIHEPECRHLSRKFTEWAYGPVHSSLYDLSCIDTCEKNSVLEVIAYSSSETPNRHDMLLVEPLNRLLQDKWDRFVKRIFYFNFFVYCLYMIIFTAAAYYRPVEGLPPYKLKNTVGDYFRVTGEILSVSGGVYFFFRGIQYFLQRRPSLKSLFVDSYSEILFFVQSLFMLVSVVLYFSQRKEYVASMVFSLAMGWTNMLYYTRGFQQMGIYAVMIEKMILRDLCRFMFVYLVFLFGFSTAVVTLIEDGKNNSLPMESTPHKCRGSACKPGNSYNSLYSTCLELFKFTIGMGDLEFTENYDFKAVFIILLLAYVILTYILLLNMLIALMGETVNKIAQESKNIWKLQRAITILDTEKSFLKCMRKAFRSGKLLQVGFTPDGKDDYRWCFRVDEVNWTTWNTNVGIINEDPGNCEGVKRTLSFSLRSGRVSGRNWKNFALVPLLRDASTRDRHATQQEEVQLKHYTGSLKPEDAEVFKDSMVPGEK
measurement.notes: 45Ca influx test in cultured neonatal rat DRG neurons, inhibition of capsaicin response
Assay type: cell-based
test.parameters: neonatal rat DRG neurons, capsaicin 0.5 μM, 45Ca influx; read-out: Antagonist Calcium Uptake Test (IC50)
pIC50: −log10 of the molar value. Structures can show the parent of a compound that is named as a salt.
# binarize pIC50: threshold 6 inclusive, high side criterion met, low side criterion not met

Example entries and their recorded answers appear below.
C=Cc1cc(CNC(=O)/C=C/c2ccc(C(F)(F)F)nc2Oc2ccccc2)cc(F)c1NS(C)(=O)=O : criterion met
COCCOc1nc(C(F)(F)F)ccc1/C=C/C(=O)NCc1cc(F)c(NS(C)(=O)=O)c(C#N)c1 : criterion not met
C#Cc1cc(CNC(=O)/C=C/c2ccc(C(F)(F)F)nc2N2CCNCC2)cc(F)c1NS(C)(=O)=O [Example 116, HCl salt] : criterion not met
CS(=O)(=O)Nc1ccc(CNC(=O)/C=C/c2ccc(Cl)nc2)cc1F : criterion not met
CS(=O)(=O)Nc1c(F)cc(CNC(=O)/C=C/c2ccc(C(F)(F)F)nc2N2CCOCC2)cc1C(F)(F)F : criterion not met
CCC/C(=C/C(=O)N[C@H](C)c1cc(F)c(NS(C)(=O)=O)c(F)c1)c1ccc(C(F)(F)F)nc1CCC : criterion met

Form field: pIC50 at least 6? Entry: `CCNc1nc(C(F)(F)F)ccc1/C=C/C(=O)NCc1cc(F)c(NS(C)(=O)=O)c(C#N)c1`
criterion met

Check this molecule for pIC50 at or above 6: CCC(C)Cc1nc(C(F)(F)F)ccc1/C=C/C(=O)N[C@H](C)c1ccc(NS(C)(=O)=O)c(F)c1 (stereo partly drawn)
criterion met

hey, is pIC50 for this one >= 6? `CS(=O)(=O)Nc1c(F)cc(CNC(=O)/C=C/c2ccc(C(F)(F)F)nc2N2CCCCC2)cc1F`
criterion met

Identify whether the reported pIC50 of the following molecule is 6 or greater: `CCCS(=O)(=O)c1nc(C(F)(F)F)ccc1C=CC(=O)NCc1ccc(NS(C)(=O)=O)c(C)c1`
criterion not met

Record `C#Cc1cc(CNC(=O)/C=C/c2ccc(C(F)(F)F)nc2-n2cccn2)cc(F)c1NS(C)(=O)=O` ; criterion: pIC50 no lower than 6. Met?
criterion not met

Could you please find out whether `C=Cc1cc(CNC(=O)/C=C/c2ccc(C(C)(C)C)nc2)cc(F)c1NS(C)(=O)=O` has pIC50 that meets 6 or exceeds it?
criterion met

Entry `C#Cc1cc(CNC(=O)/C=C(/CCC)c2ccc(C(F)(F)F)nc2CCC)cc(F)c1NS(C)(=O)=O` : is its pIC50 no less than 6?
criterion met

Decide: is the reported value of pIC50 for `C#Cc1cc(CNC(=O)/C=C/c2ccc(C(F)(F)F)nc2N(C)CCC)cc(F)c1NS(C)(=O)=O` equal to or greater than 6?
criterion met

###

measurement.notes: Metabolic stability test in rat liver microsomes
Format: in vitro ADME
test.parameters: 5 μg/mL, 0.5 mg/mL protein, 30 min incubation
recorded.metric: Stability RLM (% metabolized in rat liver microsomes) (%)
Report only the number, with the unit % understood.

C#Cc1cc(CNC(=O)/C=C/c2ccc(C(F)(F)F)nc2NCCOC)cc(F)c1NS(C)(=O)=O : 15.3
C#Cc1cc(CNC(=O)/C=C/c2ccc(C(F)(F)F)nc2N2CCOCC2)cc(F)c1NS(C)(=O)=O : 11.7
CCCc1nc(C(F)(F)F)ccc1/C=C/C(=O)NCc1ccc(NS(C)(=O)=O)c(Cl)c1 : 0

Now consider the entry below.
Name the reported Stability RLM (% metabolized in rat liver microsomes) value associated with the compound `CCCNc1nc(C(F)(F)F)ccc1/C=C/C(=O)NCc1cc(F)c(NS(C)(=O)=O)c(F)c1`
0
